Source of measurements: the RNAGym collection of RNA variant scans (doi:10.1073/pnas.2313332121)

B1: TPR t1 (parent)
chain: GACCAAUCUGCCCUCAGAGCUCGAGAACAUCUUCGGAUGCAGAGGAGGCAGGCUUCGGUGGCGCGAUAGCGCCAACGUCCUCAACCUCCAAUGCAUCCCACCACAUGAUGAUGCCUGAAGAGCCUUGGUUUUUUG

# Variants of: B1
# test: polymerase ribozyme fitness, log enrichment relative to wild type (log ratio); higher = more active; in vitro selection for triplet polymerase activity
experimentalEndpoint: polymerase ribozyme fitness (log ratio)

mutationkey="C12G C115G" experimentalendpoint="polymerase ribozyme fitness (log ratio)" endpointvalue=-2.46
mutationkey="C85U A90U U109G C124A" experimentalendpoint="polymerase ribozyme fitness (log ratio)" endpointvalue=-6.07
mutationkey="A100U G128A" experimentalendpoint="polymerase ribozyme fitness (log ratio)" endpointvalue=-2.05
mutationkey="C31A C56U" experimentalendpoint="polymerase ribozyme fitness (log ratio)" endpointvalue=-4.45
mutationkey="U116C G117U" experimentalendpoint="polymerase ribozyme fitness (log ratio)" endpointvalue=-1.01
mutationkey="G51A C64A" experimentalendpoint="polymerase ribozyme fitness (log ratio)" endpointvalue=-6.96
mutationkey="U54C G60U U133G" experimentalendpoint="polymerase ribozyme fitness (log ratio)" endpointvalue=-0.398
mutationkey="C15U A41C G48A C53U C56U C124U" experimentalendpoint="polymerase ribozyme fitness (log ratio)" endpointvalue=-1.63
mutationkey="A90G U112A" experimentalendpoint="polymerase ribozyme fitness (log ratio)" endpointvalue=1.08
mutationkey="G61A C88U" experimentalendpoint="polymerase ribozyme fitness (log ratio)" endpointvalue=-0.64

Let's switch to this variant now.
Query: // lookup polymerase ribozyme fitness (log ratio) for C3A G61A C79U
Reply: -1.27
